- System: Klebsiella pneumoniae
- condition: Concentration 20 uM; ASSAY_TEST Inhibition of Bacterial Growth; detection method Absorption (OD600); MEDIA CAMHB; plate type 384well; NBS; CORNING #3640; time 18 hr
- Description: Antibacterial activity against Klebsiella pneumoniae MDR ATCC 70063 (CO-ADD:GN_003); MIC in CAMBH media using NBS plates, by OD(600)
Entries with a potency or affinity are not part of this list.
outcomeMeasure: Inhibition

Use these answered entries as a reference point.
molecule	Inhibition
COc1ccc2c3c([nH]c2c1)[C@H](C=C(C)C)N1C(=O)[C@@H]2CCCN2C(=O)[C@@H]1C3	-0.45%
CCCCCC(O)C1C(=O)OC(C)C(O)/C=C/C=C/C=C/C=C/C=C(\C)C(O)C(O)C(O)CC(O)CC(O)CC(O)CC(O)CC1O (configuration not stated)	3.06%

Would you be so kind as to report Inhibition for each listed record?
1. C=C1C(C)C2C(Cc3ccccc3)NC(=O)C23C(OC(C)=O)/C=C/C(C)(O)CC(C)C/C=C/C3C1O (configuration not stated)
2. COc1ccc(C(=O)O[C@H]2CC[C@@]3(C)[C@@H]4CC[C@H]5[C@]6(O)C[C@H](O)[C@@]7(O)[C@@H](CN8C[C@@H](C)CC[C@H]8[C@@]7(C)O)[C@]6(O)C[C@@]53OC24O)cc1OC
3. CC(O)CCC(=O)c1ccoc1 (configuration not stated)
4. COc1ccc2c(c1O)-c1c(OC)c(OC)cc3c1C(C2)N(C)CC3 (configuration not stated)
5. COc1cccc2c1cc([N+](=O)[O-])c1c(C(=O)O)cc3c(c12)OCO3

["-1.52%", "3.66%", "-0.54%", "6.13%", "-1.07%"]

Each recorded value in this set is attributed to ChEMBL document CHEMBL4296183.
